tested on: GAK (Melanoma); experiment: Bliss excess, mean over the matrix (fraction); higher = more synergy;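 further: after 72 h of two-drug dosing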
Reported Bliss excess is given for each of the following molecules.
experimental_endpoint: Bliss excess

>  <molecule>
O=C(c1cc(Cc2n[nH]c(=O)c3ccccc23)ccc1F)N1CCN(C(=O)C2CC2)CC1 [Olaparib] + CC1(C)CCC(CN2CCN(c3ccc(C(=O)NS(=O)(=O)c4ccc(NCC5CCOCC5)c([N+](=O)[O-])c4)c(Oc4cnc5[nH]ccc5c4)c3)CC2)=C(c2ccc(Cl)cc2)C1 [Venetoclax] (first compound max 10 µM, 7x7, partner max 1 µM)

>  <measured_number>
-0.048

$$$$
>  <molecule>
CC1(C)CCC(CN2CCN(c3ccc(C(=O)NS(=O)(=O)c4ccc(NCC5CCOCC5)c([N+](=O)[O-])c4)c(Oc4cnc5[nH]ccc5c4)c3)CC2)=C(c2ccc(Cl)cc2)C1 [Venetoclax] + Cc1cc2ncnn2cc1Nc1ncc2c(n1)n(C1CCOCC1)c(=O)n2C [AZD7648] (first compound max 1 µM, 7x7, partner max 10 µM)

>  <measured_number>
-0.0209

$$$$
>  <molecule>
O=C(c1cc(Cc2n[nH]c(=O)c3ccccc23)ccc1F)N1CCN(C(=O)C2CC2)CC1 [Olaparib] + Cc1c2c(nn1C)CSCc1cc(n(C)n1)CSc1cc(c3ccccc3c1)OCCCc1c(C(=O)O)n(C)c3c-2c(Cl)ccc13 [AZD5991] (first compound max 10 µM, 7x7, partner max 1 µM)

>  <measured_number>
-0.0516

$$$$
